# experiment: SK-BR-3 cell growth inhibitors, pilot screen, 24 h, human (AID 572);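 further: compound exposure lasted between 18 and 24 h rather than exactly 24 h; 100% = carrier-treated control wells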
# setup conditions: SK-BR-3 viability, CellTiter-Glo luminescence, at 10 µM, stronger effect = lower value
The source made the active and inactive calls.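 How the source made its calls: active means viability at or below 10% of carrier control in both of two separate runs; inconclusive means viability at or below 10% in only one of the two runs; inactive means the rest.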
value kind: viability

| compound | measured value |
| --- | --- |
| CCSc1nc2ccccc2n1CCC(=O)O | 99% (inactive) |
| COc1ccc(CCNc2oc(-c3ccco3)nc2C#N)cc1 | 95% (inactive) |
| COc1ccc(CNCC(=O)Nc2cc(C)nn2-c2nc(C)cc(C)n2)cc1OC | 98% (inactive) |
| CCOCCn1c(CN2CCC(Cc3ccccc3)CC2)nc2c1c(=O)n(C)c(=O)n2C | 61% (inactive) |
| CC(CCc1ccccc1)NCC(O)c1ccc(O)c(C(N)=O)c1 (stereo unspecified) | 94% (inactive) |
| COc1ccc(OC)c(N(CC(=O)Nc2cccnc2)S(=O)(=O)c2ccc(OC)c(OC)c2)c1 | 112% (inactive) |

====

Measured viability values are reported for all entries that follow.
# experiment: reversal of MRP1-mediated doxorubicin resistance, pilot screen, H69AR cells, doxorubicin co-treatment (AID 601)
# setup conditions: H69AR cells, CellTiter-Glo, 72 h; compound alone cytotoxicity; at 10 µM

| compound | viability / % |
| --- | --- |
| COc1ccc(CC(=O)Nc2c3c(nn2-c2cccc(Cl)c2)CS(=O)C3)cc1 (stereo unspecified) | 104 |
| CCCSC1=C(C#N)C(c2ccccc2OCC)CC(=O)N1 (stereo unspecified) | 90.1 |
| CC(O)c1cc2c(cc1NC(=O)c1cnn3c1NC(c1ccco1)CC3C(F)(F)F)OCO2 (stereo unspecified) | 86.3 |
| COc1ccc(CN(C(=O)CSc2nnc(-c3ccccc3F)o2)c2ccc(F)cc2)cc1 | 101 |
| CC1Cc2ccccc2N1CC(=O)NC(=O)NCc1ccco1 (stereo unspecified) | 39.9 |
| CCCc1cc(=O)[nH]c(SCc2ccccc2)n1 | 90.4 |
| COc1cc(CN2CCC(C(=O)NC3CCCC3)CC2)ccc1O | 94.7 |
| COc1cc(S(=O)(=O)NC2CCCCC2C)ccc1Cl (stereo unspecified) | 92.4 |
| CC(=O)Nc1cccc(NC(=O)CSc2nnnn2C)c1 | 106 |
| Cc1[nH]nc2c1C1(C(=O)N(Cc3ccc(Cl)cc3)c3ccccc31)C(C#N)=C(N)O2 (stereo unspecified) | 52.2 |
| CCOc1ccccc1CN(Cc1ccco1)S(=O)(=O)c1ccc(-n2cnnn2)c(OC)c1 | 6.69 |

====

# experiment: growth inhibitors of H69AR lung tumor, primary screen, human, duplicate replicates (AID 580);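 further: 100% = mean luminescence of untreated wells and 0% = no signal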
# setup conditions: H69AR lung tumor cells viability, ATP luminescence, 72 h; at 10 µM
The source made the active and inactive calls.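 Rule for the calls: active = viability at or under a set limit in both replicates, limit being median viability minus 3 SD (cut at about 48% in these data, passing the limit was not always enough); inconclusive = at or under the limit in just one replicate; inactive = at or above the limit in both replicates.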
Possible outcomes: class 1 = active, class 0 = inactive

| compound | group |
| --- | --- |
| COc1ccc(OC)c(NC(=O)C23CCC(C)(C(=O)C2)C3(C)C)c1 (configuration not stated) | class 0 |
| Cc1ccc2nc(NC(=O)CN(C)S(=O)(=O)c3cccc4nsnc34)sc2c1 | class 1 |
| Cn1c(=O)[nH]c(=O)c2c1nc(NCCCn1ccnc1)n2Cc1cccc(Br)c1 | class 0 |
| O=C(Nc1cccnc1)Nc1ccc(F)c(Cl)c1 | class 0 |
| CN(C)C(=O)COc1ccc2cc(-c3ccccc3)c(=O)oc2c1 | class 0 |
| COc1cccc(Oc2ccc(N)cc2)c1 | class 0 |
| NC(=O)c1ccsc1NC(=O)COC(=O)Cc1ccsc1 | class 0 |
| Cc1cccc(-n2ncc3c(N)ncnc32)c1 | class 0 |
| CC1Cc2ccccc2N1S(=O)(=O)c1ccc2c(c1)n(C)c(=O)c(=O)n2C (configuration not stated) | class 0 |
| COc1cccc(NC(=O)N2CCC(N3CCCCC3)CC2)c1 | class 0 |
| CCOC(=O)C(C)C1(O)c2ccccc2-c2ncccc21 (configuration not stated) | class 0 |
| CCOC(=O)C1=C(N)OC2=C(C(=O)CC(C)(C)C2)C1c1ccoc1 (configuration not stated) | class 0 |
| Cc1ccc(NC(=O)CC2Nc3ccccc3NC2=O)cc1Cl (configuration not stated) | class 1 |
| CCn1c(SCC(=O)Nc2ccc3c(c2)OCO3)nnc1-c1ccccc1O | class 0 |
| Cc1csc(NC(=O)c2cccs2)n1 | class 0 |
| Cc1cc(NCC2CCCO2)n2c(nc3ccccc32)c1C#N (configuration not stated) | class 0 |
| Oc1ccccc1-c1cc(C(F)(F)C(F)F)[nH]n1 | class 0 |
| Clc1ccc(Cl)c(-c2nn3c(COc4ccccc4)nnc3s2)c1 | class 0 |
| CC(C)(C)C(=O)NC1CCN(C(=O)N2CCCC2)CC1 | class 0 |
| CCC(=O)Nc1nn(C)c2nc3c(C)cccc3cc12 | class 0 |
| O=S(=O)(Cc1ccccc1)N1CCN(Cc2ccccc2)CC1 | class 0 |
| COC(=O)c1ccc(C(=O)OC)c(NC(=O)Nc2ccc3c(c2)OCO3)c1 | class 0 |
| Nc1nc(C(=O)N2CCOCC2)nn1S(=O)(=O)c1ccc(Cl)cc1 | class 0 |
| COC(=O)C1=C(C)N(Cc2ccco2)C(=O)C1 | class 0 |
| COCCNC(=O)C(c1ccc(C)o1)N(Cc1cccs1)C(=O)c1snc(C(N)=O)c1N (configuration not stated) | class 0 |
| COc1cc2c(cc1OC)CN(C(=O)COc1ccc(C)c(C)c1)CC2 | class 0 |
| O=C(Nc1cc(C(F)(F)F)ccc1Cl)c1cc(C2CC2)on1 | class 0 |
| CC1CCc2c(sc3c2C2=NS(=O)(=O)CCN2C=N3)C1 (configuration not stated) | class 0 |
| CCOC(=O)CN(C)Cc1c[nH]c2ccccc12 | class 0 |
| c1ccc2c(c1)c1c3n2CCNC3CCC1 (configuration not stated) | class 0 |
| COc1cccc(C2CC(c3ccccc3)n3ncnc3N2)c1 (configuration not stated) | class 0 |
| Cc1ccccc1-n1nnc2c(=O)oc3ccccc3c21 | class 0 |
| Cn1c(=O)c2c(nc(NCc3ccco3)n2C/C=C/c2ccccc2)n(C)c1=O | class 0 |
| CCSC1=C(C#N)C(c2cccc(OC)c2)CC(=O)N1 (configuration not stated) | class 0 |
| COC(=O)c1ccccc1NC(=O)C1CC=CCC1C(=O)O (configuration not stated) | class 0 |
| CCOc1ccccc1-n1c(SCC(=O)NC(C)CC)nnc1-c1ccoc1C (configuration not stated) | class 0 |
| CCOC(=O)C1=C[C@]2(CC)CCCN3CCc4c(n1c1ccccc41)[C@@H]32 | class 0 |
| Cc1cc(C(=O)Nc2nc3c(s2)CCCC3)cs1 | class 0 |
| CC(=O)c1c(C)[nH]c(C(=O)Nc2c(C)n(C)n(-c3ccccc3)c2=O)c1C | class 0 |
| COC(=O)c1[nH]c(C)c(/C(O)=C2\C(=O)C(=O)N(CCN3CCOCC3)C2c2cccs2)c1C (configuration not stated) | class 1 |
| Brc1ccc(-c2nnc3sc(CN4CCC5(CC4)OCCO5)cn23)cc1 | class 0 |
| O=C1c2ccccc2NC(c2cccc(F)c2)N1Cc1ccco1 (configuration not stated) | class 0 |
| CCOC(=O)NC(=O)CSc1nnnn1-c1ccc(Cl)cc1 | class 0 |
| O=C(CCCn1c(=S)[nH]c2cc3c(cc2c1=O)OCO3)N1CCN(c2ccccc2F)CC1 | class 0 |
| COc1ccc(C(=O)Nc2nc(C)c(C(=O)N(C)C)s2)cc1OC | class 0 |
| CCC(=O)c1ccc(O)cc1 | class 0 |
| CSCCC(NC(=O)CCN1C(=O)c2ccccc2C1=O)C(=O)O (configuration not stated) | class 0 |

The measurements presented in this section are drawn from PubChem BioAssay.
